target: T1, recombinant human PD-1 Fc chimera (human, UniProt Q15116 25-167); test: SPR (Biacore T200), PD-1-huFc amine-coupled to CM5, single cycle kinetics, 1:1 fit
T1 construct: Bought (R&D 1086-PD); Labelled with europium cryptate in the PD-L2 HTRF assay; also called human PD-1 (R&D Systems cat no. 1086-PD); human PD-1-huFc; not shown: human Fc of the bought chimera
T1 sequence (Q15116 25-167, change not shown): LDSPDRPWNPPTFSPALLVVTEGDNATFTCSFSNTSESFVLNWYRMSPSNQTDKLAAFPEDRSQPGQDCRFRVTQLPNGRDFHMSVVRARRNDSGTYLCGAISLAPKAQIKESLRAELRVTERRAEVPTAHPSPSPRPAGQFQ
pKd: −log10 of the molar value.
ENDPOINT_LABEL: pKd

Some solved cases for reference:
Humabody VH 1.26 (VHH, human VH single domain antibody) VHH: EVQLVESGGGLVQPGRSLRLSCAASGFTFDDYAMHWVRQAPGKDLEWVSGISWNGGSMGYADSVKGRFTISRDNAKNSLYLQMNSLRAEDTALYYCVREKGPGLTGSTADYYGLDAWGQGTMVTVSS: 8.10
Humabody VH 2.12 (VHH, human VH single domain antibody) VHH: EVQLVESGGGVVRPGGSLRLSCAASGFTFDDYAMSWVRQAPGKGLEWVSGITWNAGSTGYADSVKGRFTISRDNAKNSLYLQMNSLRAEDTALYYCVRDKYSYAWSYDDFDIWGQGTMVTVSS: 8.16

I = Humabody VH 1.44 (VHH, human VH single domain antibody) VHH: EVQLVESGGGLVQPGRSLRLSCAASGFTFDDYALHWVRQAPGKDLEWVSGISWNSGSYGYADSVKGRFTISRDNAKNSLYLQMNSLRAEDTALYYCVREKGPGLTGSTADYYGLDAWGQGTMVTVSS
II = Humabody VH 1.39 (VHH, human VH single domain antibody) VHH: EVQLVESGGGLVQPGRSLRLSCAASGFTFDDYALHWVRQAPGKDLEWVSGISWNGGSYGYADSVKGRFTISRDNAKNSLYLQMNSLRAEDTALYYCVREKGPGLTGSTADYYGLDAWGQGTMVTVSS
Which one would you say has the larger pKd value: I , or II ? State your choice using its label. II
(II: 8.37, I: 8.04)
